Target under test: T1, CD71 apical domain (UniProt P02786 189-383, limits assumed)
T1 construct: domain: Apical domain
T1 sequence (P02786 189-383 limits assumed): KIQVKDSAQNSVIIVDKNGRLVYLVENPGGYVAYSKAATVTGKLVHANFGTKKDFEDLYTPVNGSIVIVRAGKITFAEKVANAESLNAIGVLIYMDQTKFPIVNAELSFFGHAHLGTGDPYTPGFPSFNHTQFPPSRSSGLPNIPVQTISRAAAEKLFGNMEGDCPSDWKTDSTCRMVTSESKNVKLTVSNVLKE
Test name: solution ELISA, signal ratio to HSA
Quick rule for you: apical domain:HSA at 300 or higher means Condition met, lower means Condition not met.

Inquiry: I'd appreciate it if you could say whether SEQ ID NO 136 (designed binder, FN3 domain) MLPAPKNLVVSRVTEDSARLSWTAPDAAFDSFFIGYLEPQPPGEAIWLHVPGSERSYDLTGLKPGTEYNVTIQGVKGGFPSIPLIAIFTT has apical domain:HSA at least equal to 300.
Reply text: Condition not met

Inquiry: // inclusive: apical domain:HSA at least 300? input: SEQ ID NO 173 (designed binder, FN3 domain) MLPAPKNLVVSRVTEDSARLSWTAPDAAFDSFHIVYHEPRPSGEAIHLQVPGSERSYDLTGLKPGTEYNVTIQGVKGGFPSYPLSAFFTT
Reply text: Condition not met

Inquiry: Please check the record SEQ ID NO 199 (designed binder, FN3 domain) MLPAPKNLVVSRVTEDSARLSWTAPDAAFDSFYIAYAEPRPDGEAIHLWVPGSERSYDLTGLKPGTEYSVLIHGVKGGLLSSPLHADFTT and state if its apical domain:HSA is at or above 300.
Reply text: Condition met

Inquiry: hey, is apical domain:HSA for this one >= 300? SEQ ID NO 200 (designed binder, FN3 domain) MLPAPKNLVVSRVTEDSARLSWTAPDAAFDSFYIAYAEPRPDGEAIWLEVPGSERSYDLTGLKPGTEYSVLIHGVKGGLLSSPLVADFTT
Reply text: Condition met

Inquiry: Does SEQ ID NO 185 (designed binder, FN3 domain) MLPAPKNLVVSRVTEDSARLSWTAPDAAFDSFYIAYAEPRPDGEAIYLGVPGSERSYDLTGLKPGTEYSVLIHGVKGGLLSSPLRAKFTT have a reported apical domain:HSA of at least 300?
Reply text: Condition met

Inquiry: Could you verify whether the entry SEQ ID NO 167 (designed binder, FN3 domain) MLPAPKNLVVSRVTEDSARLSWTAPDAAFDSFFIGYLEPQPPGEAIILGVPGSERSYDLTGLKPGTEYSVLIHGVKGGLLSSPLHAYSTT shows apical domain:HSA of no less than 300?
Reply text: Condition not met

Inquiry: I'd appreciate it if you could say whether SEQ ID NO 169 (designed binder, FN3 domain) MLPAPKNLVVSRVTEDSARLSWTAPDAAFDSFYIAYAEPRPDGEAILLLVPGSERSYDLTGLKPGTEYSVLIHGVKGGLLSSPLSAVFTT has apical domain:HSA at least equal to 300.
Reply text: Condition met

Inquiry: Could you verify whether the entry SEQ ID NO 164 (designed binder, FN3 domain) MLPAPKNLVVSRVTEDSARLSWTAPDAAFDSFYIAYAEPRPDGEAIILRVPGSERSYDLTGLKPGTEYSVLIHGVKGGLLSSPLVAIFTT shows apical domain:HSA of no less than 300?
Reply text: Condition met

Ref: patent US20220332795A1
